Source listed as patent US10898481B2.

biological target: hA2a/CHO (Homo sapiens (Human), UniProt P29274); experiment: cAMP inhibition assay in hA2a/CHO cells, 10 μM adenosine; assay type: cell-based; conditions: read-out: cAMP & FLIPR IC50 (nM) hA2a;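 note: compounds added to cells 30 min ahead of adenosine, then a further 30 min at 37 °C with adenosine before cAMP detection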
Sequence (P29274 whole entry): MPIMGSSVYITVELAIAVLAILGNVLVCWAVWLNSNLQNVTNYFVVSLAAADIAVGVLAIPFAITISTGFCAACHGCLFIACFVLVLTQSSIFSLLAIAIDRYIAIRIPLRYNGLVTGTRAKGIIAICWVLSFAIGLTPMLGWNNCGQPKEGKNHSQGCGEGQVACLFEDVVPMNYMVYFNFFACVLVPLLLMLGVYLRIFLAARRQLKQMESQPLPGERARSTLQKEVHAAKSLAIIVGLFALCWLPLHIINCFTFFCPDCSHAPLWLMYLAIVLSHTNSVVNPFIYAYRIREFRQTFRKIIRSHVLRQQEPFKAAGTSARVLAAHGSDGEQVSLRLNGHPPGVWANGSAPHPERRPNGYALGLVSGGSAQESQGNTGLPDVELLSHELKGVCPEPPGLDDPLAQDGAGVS

| compound | IC50, nM |
| --- | --- |
| COC[C@@H](C)NC(=O)c1nc(-c2ccc3ncc(C)n3c2)c(-c2ncco2)nc1N | 5.31 |
| Nc1nc(-c2ncco2)c(-c2ccc(=O)n(CCO)c2)nc1C(=O)NCc1c(F)cccc1F | 1.6 |
| Cn1cc(-c2nc(C(=O)NC(CO)c3c(F)cccc3F)c(N)nc2-c2ncco2)ccc1=O (stereo not drawn) | 21 |
